Kindly state T/C % for each of the entries shown.
test system: resistant line P/388/VCR; assay: Antitumour activity in vivo: increase in antitumour activity of vincristine on murine leukaemia P 388/VCR; set-up: species or system murine; female B6D2Fl mice; details: 50 mg/kg i.p. daily for 4 days, with vincristine […] i.p.; ± sem; no compound: 146 ± 2
Give bare numbers, in %.

| Molecule | T/C % (%) |
| --- | --- |
| C=CCNc1nc(NCC=C)nc(N2CCC(NCC3c4ccccc4CCc4cc(OC)ccc43)CC2)n1 (racemic) | 159 |
| C=CCNc1nc(NCC=C)nc(N2CCC(NCC3c4ccccc4CCc4ccccc43)CC2)n1 | 208 |
| C=CCNc1nc(NC)nc(N2CCC(NCC3c4ccccc4COc4ccccc43)CC2)n1 (racemic) | 170 |

The record that follows has no T/C % shown yet.
Assay resistant line P/388/VCR, sample C=CCNc1nc(NCCC)nc(N2CCC(NCC3c4ccccc4CCc4ccccc43)CC2)n1 , T/C % read: 184

====

test system: line DC-3F/AD; assay: Cytotoxicity (Microculture Tetrazolium Assay): reversal of resistance to actinomycin D, line DC-3F/AD; type: cell-based, Chinese hamster; settings: 1 μM compound, 4 days
Kindly state Reversion factors (cytotoxicity) with the line DC-3F/AD for each of the entries shown.
Give bare numbers.

Please review the entries below; each comes with its answer.
| Compound | Measured |
| --- | --- |
| C=CCNc1nc(NCC=C)nc(N2CCC(NCC3c4ccccc4-c4ccccc43)CC2)n1 [Example 13] | 7.1 |
| C=CCNc1nc(NCC=C)nc(N2CCC(NCC34CCC(c5ccccc53)c3ccccc34)CC2)n1 [Example 10] | 1.9 |
| C=CCNc1nc(NCC=C)nc(N2CCN(CC3c4ccccc4CCc4ccccc43)CC2)n1 [Example 25] | 13 |
| C=CCNc1nc(NCC=C)nc(N2CCC(NCC3c4ccccc4CSc4ccccc43)CC2)n1 (racemic) [Example 26] | 6.8 |

Items follow; give Reversion factors (cytotoxicity) with the line DC-3F/AD for each.
1. C=CCNc1nc(NCC=C)nc(NCCN2CCN(C3c4ccccc4CCc4ccccc43)CC2)n1 [Example 2]
2. C=CCNc1nc(NCC=C)nc(N2CCC(N(C)CC3c4ccccc4CCc4ccccc43)CC2)n1 [Example 30]
3. C=CCNc1nc(NCC=C)nc(N2CCN(NCC3c4ccccc4CCc4ccccc43)CC2)n1 [Example 24]
4. C=CCNc1nc(NCC=C)nc(N2CCN(C3c4ccccc4CCc4ccccc43)CC2)n1 [Example 1]

[1, 2.3, 14, 27]

====

test system: line DC-3F/AD; assay: Flow cytometry: intracellular accumulation of adriamycin by cells of the line DC-3F/AD; format: cell-based, Chinese hamster; conditions: 10 μM compound; ADR 50 μM; 5 hours
Kindly state VAR-MEAN (increase in ADR fluorescence), line DC-3F/AD for each of the entries shown.

| Compound | Measured |
| --- | --- |
| C=CCNc1nc(NCC=C)nc(N2CCC(NCC3c4ccccc4CCCc4ccccc43)CC2)n1 [Example 20] | 21.6 |
| C=CCNc1nc(NCC=C)nc(NCC(O)CN2CCC(NC3c4ccccc4CCc4ccccc43)CC2)n1 (centres unmarked) [Example 16] | 12.9 |

Items follow; give VAR-MEAN (increase in ADR fluorescence), line DC-3F/AD for each.
1. C=CCNc1nc(NCC=C)nc(N2CCC(NCC3c4ccccc4-c4ccccc43)CC2)n1 [Example 13]
2. CNc1nc(NC)nc(N2CCC(NCC3c4ccccc4CCc4ccccc43)CC2)n1 [Example 14]
3. C=CCNc1nc(NC)nc(N2CCC(NCC3c4ccccc4COc4ccccc43)CC2)n1 (racemic) [Example 28]
4. C=CCNc1nc(NCC=C)nc(NCC2CCN(C3c4ccccc4CCc4ccccc43)CC2)n1 [Example 7]
5. C=CCNc1nc(NCC=C)nc(NCC(O)CN2CCN(C3c4ccccc4CCc4ccccc43)CC2)n1 (centres unmarked) [Example 6]
6. C=CCNc1nc(NCC=C)nc(N2CCC(NCC3c4ccccc4N(C)S(=O)(=O)c4cc(Cl)ccc43)CC2)n1 (racemic) [Example 21]

1: 23.2; 2: 30.6; 3: 21.5; 4: 17.4; 5: 27.6; 6: 24.1

====

test system: line DC-3F/AD; assay: Cytotoxicity (Microculture Tetrazolium Assay): reversal of resistance to actinomycin D, line DC-3F/AD; type: cell-based, Chinese hamster; details: 5 μM compound, 4 days
Is Reversion factors (cytotoxicity) with the line DC-3F/AD at least 500? Then YES. If not, NO.

Sample answers from the record:
| Molecule | Class Name |
| --- | --- |
| C=CCNc1nc(NCC=C)nc(N2CCC(NCC3c4ccccc4N(C)S(=O)(=O)c4cc(Cl)ccc43)CC2)n1 (racemic) | YES |
| C=CCNc1nc(NCC=C)nc(N2CCC(NCC3c4ccccc4COc4ccccc43)CC2)n1 (racemic) | YES |
| C=CCNc1nc(NCC=C)nc(N2CCC(NCC3c4ccccc4Oc4ccccc43)CC2)n1 | YES |

Evaluate C=CCNc1nc(NCCC)nc(N2CCC(NCC3c4ccccc4CCc4ccccc43)CC2)n1 : Reversion factors (cytotoxicity) with the line DC-3F/AD at minimum 500?
YES

Evaluate C=CCNc1nc(NCC=C)nc(NCC2CCN(C3c4ccccc4CCc4ccccc43)CC2)n1 : Reversion factors (cytotoxicity) with the line DC-3F/AD at minimum 500?
NO

====

system: line DC-3F/AD; assay: Cytotoxicity (Microculture Tetrazolium Assay): reversal of resistance to actinomycin D, line DC-3F/AD; assay type: cell-based, Chinese hamster; settings: 5 μM compound, 4 days
Parameter Measured: Reversion factors (cytotoxicity) with the line DC-3F/AD
One number for each entry.

Please review the entries below; each comes with its answer.
| Compound | Measured |
| --- | --- |
| C=CCNc1nc(NCC=C)nc(N2CCN(C3c4ccccc4CCc4ccccc43)CC2)n1 [Example 1] | 309 |
| C=CCNc1nc(NCC=C)nc(N2CCC(NCC34CCC(c5ccccc53)c3ccccc34)CC2)n1 [Example 10] | 96 |
| C=CCNc1nc(NCC=C)nc(NCC2CCN(CC3c4ccccc4CCc4ccccc43)CC2)n1 [Example 8] | 353 |

Notebook: C=CCNc1nc(NCC=C)nc(N2CCC(NC3c4ccccc4CCc4ccccc43)CC2)n1 [Example 4] , Reversion factors (cytotoxicity) with the line DC-3F/AD read as 755

====

test system: line DC-3F/AD; assay: Flow cytometry: intracellular accumulation of adriamycin by cells of the line DC-3F/AD; type: cell-based, Chinese hamster; conditions: 10 μM compound; ADR 50 μM; 5 hours
Kindly state VAR-MEAN (increase in ADR fluorescence), line DC-3F/AD for each of the entries shown.
Numbers only.

Please review the entries below; each comes with its answer.
| Compound | Target Of Assay | Measured |
| --- | --- | --- |
| C=CCNc1nc(NCC=C)nc(N2CCC(NCC34CCC(c5ccccc53)c3ccccc34)CC2)n1 [Example 10] | line DC-3F/AD | 30.7 |
| C=CCNc1nc(NCC=C)nc(N2CCC(NCC3c4ccccc4COc4ccccc43)CC2)n1 (racemic) [Example 19] | line DC-3F/AD | 25.3 |
| C=CCNc1nc(NCC=C)nc(N2CCC(NC3c4ccccc4CCc4ccccc43)CC2)n1 [Example 4] | line DC-3F/AD | 28.1 |

Assay line DC-3F/AD, sample COc1ccc(CCN(C)CCCC(C#N)(c2ccc(OC)c(OC)c2)C(C)C)cc1OC (stereo not shown) [verapamil, reference compound] , VAR-MEAN (increase in ADR fluorescence), line DC-3F/AD read: 8.9

====

tested on: line DC-3F/AD; assay: Cytotoxicity (Microculture Tetrazolium Assay): reversal of resistance to actinomycin D, line DC-3F/AD; type: cell-based, Chinese hamster; conditions: 0.5 μM compound, 4 days
Kindly state Reversion factors (cytotoxicity) with the line DC-3F/AD for each of the entries shown.
Numbers only.

Please review the entries below; each comes with its answer.
| Compound | Target Of Assay | Measured |
| --- | --- | --- |
| C=CCNc1nc(NCC=C)nc(NCC2CCN(CC3c4ccccc4CCc4ccccc43)CC2)n1 [Example 8] | line DC-3F/AD | 0.8 |
| C=CCNc1nc(NCC=C)nc(NCC(O)CN2CCN(C3c4ccccc4CCc4ccccc43)CC2)n1 (centres unmarked) [Example 6] | line DC-3F/AD | 0.9 |
| C=CCNc1nc(NCC=C)nc(NCCN2CCN(C3c4ccccc4CCc4ccccc43)CC2)n1 [Example 2] | line DC-3F/AD | 0.8 |
| C=CCNc1nc(NCC=C)nc(NCC(O)CN2CCC(NC3c4ccccc4CCc4ccccc43)CC2)n1 (centres unmarked) [Example 16] | line DC-3F/AD | 1 |
| C=CCNc1nc(NCC=C)nc(NCCN2CCC(NC3c4ccccc4CCc4ccccc43)CC2)n1 [Example 12] | line DC-3F/AD | 0.9 |

Items follow; give Reversion factors (cytotoxicity) with the line DC-3F/AD for each.
1. C=CCNc1nc(NCC=C)nc(NCC2CCN(C3c4ccccc4CCc4ccccc43)CC2)n1 [Example 7]
2. C=CCNc1nc(NCC=C)nc(N2CCC(NCC3c4ccccc4CCc4cc(OC)ccc43)CC2)n1 (racemic) [Example 31]
3. C=CCNc1nc(NCC=C)nc(NCCN2CCC(NCC3c4ccccc4CCc4ccccc43)CC2)n1 [Example 15]

1: 1.2; 2: 3.1; 3: 0.8
